Reference source: paper PMC5344293

Experiment: Plasma pharmacokinetics in patients
Assay type: in vivo, human
Settings: human, plasma, oral, 60 mg, cycle 1 day 15; expansion Biliary 60 mg BID (n=7); geometric mean (% CV); read-out: AUC0-8
Experimental: Blood for plasma binimetinib and metabolite concentration assessments was collected on cycle 1 day 1 (pre-dose and 30 min to 24 h post dose), cycle 1 day 15 (pre-dose and 30 min to 8 h post dose), and cycles 2 to 8 day 1 (pre-dose) from patients in the dose-escalation phase and from selected patients in the biliary cancer cohort of the expansion phase (intensive pharmacokinetic sampling). […] Dose proportionality, accumulation, and metabolite-to-parent ratio were assessed as appropriate.
QUANTITY_NAME: AUC(0-t)
In your response, the unit should come after the numeric value.

[Q] Find the recorded AUC(0-t) belonging to Cn1cnc2c(F)c(Nc3ccc(Br)cc3F)c(C(=O)NOCCO)cc21 and report it.
[A] 3760 ng·h/mL

###

assay: Plasma pharmacokinetics in patients; assay type: in vivo, human; conditions: human, plasma, oral, 60 mg, cycle 1 day 1; expansion Biliary 60 mg BID (n=7); geometric mean (% CV)
QUANTITY_NAME: Cmax (ng/mL)
Answers are plain numbers, in ng/mL.

[Q] Bench note: what Cmax did Cn1cnc2c(F)c(Nc3ccc(Br)cc3F)c(C(=O)NOCCO)cc21 [binimetinib] show?
[A] 365

###

test: Plasma pharmacokinetics in patients; format: in vivo, human; details: human, plasma, oral, 80 mg BID, cycle 1 day 1; dose-escalation 80 mg BID (n=4); median (minimum–maximum); read-out: tmax
QUANTITY_NAME: Tmax (h)
Numbers only, in h.

[Q] # lookup: Tmax of Cn1cnc2c(F)c(Nc3ccc(Br)cc3F)c(C(=O)NOCCO)cc21
[A] 2.02

###

assay: Plasma pharmacokinetics in patients; type: in vivo, human; conditions: human, plasma, oral, 30 mg BID, cycle 1 day 1; dose-escalation 30 mg BID (n=4); geometric mean (% CV)
QUANTITY_NAME: Cmax (ng/mL)
Give bare numbers, in ng/mL.

[Q] Find the recorded Cmax belonging to Cn1cnc2c(F)c(Nc3ccc(Br)cc3F)c(C(=O)NOCCO)cc21 and report it.
[A] 327

###

test: Plasma pharmacokinetics in patients; assay type: in vivo, human; conditions: human, plasma, oral, 30 mg BID, cycle 1 day 1; dose-escalation 30 mg BID (n=4); geometric mean (% CV); intensive sampling; read-out: AUC0–8
QUANTITY_NAME: AUC(0-t) (ng·h/mL)
Answers are plain numbers, in ng·h/mL.

[Q] May I ask what AUC(0-t) has been recorded for Cn1cnc2c(F)c(Nc3ccc(Br)cc3F)c(C(=O)NOCCO)cc21 [binimetinib] ?
[A] 1000

###

test: Plasma pharmacokinetics in patients; format: in vivo, human; conditions: human, plasma, oral, 45 mg BID, cycle 1 day 1; dose-escalation 45 mg BID (n=4); median (minimum–maximum); read-out: tmax
QUANTITY_NAME: Tmax (h)
Answers are plain numbers, in h.

[Q] Item under review: Cn1cnc2c(F)c(Nc3ccc(Br)cc3F)c(C(=O)NOCCO)cc21 . Reported Tmax?
[A] 2.53

###

assay: Plasma pharmacokinetics in patients; format: in vivo, human; conditions: human, plasma, oral, 60 mg, cycle 1 day 15; expansion Biliary 60 mg BID (n=7); median (minimum–maximum); read-out: tmax
QUANTITY_NAME: Tmax
Answer with the value and then the unit.

[Q] Could you share which Tmax value was measured for Cn1cnc2c(F)c(Nc3ccc(Br)cc3F)c(C(=O)NOCCO)cc21 ?
[A] 1.5 h
